Target: T1, EBOV GP on rVSV particles (Ebola virus (EBOV), UniProt Q05320 33-676)
T1 sequence: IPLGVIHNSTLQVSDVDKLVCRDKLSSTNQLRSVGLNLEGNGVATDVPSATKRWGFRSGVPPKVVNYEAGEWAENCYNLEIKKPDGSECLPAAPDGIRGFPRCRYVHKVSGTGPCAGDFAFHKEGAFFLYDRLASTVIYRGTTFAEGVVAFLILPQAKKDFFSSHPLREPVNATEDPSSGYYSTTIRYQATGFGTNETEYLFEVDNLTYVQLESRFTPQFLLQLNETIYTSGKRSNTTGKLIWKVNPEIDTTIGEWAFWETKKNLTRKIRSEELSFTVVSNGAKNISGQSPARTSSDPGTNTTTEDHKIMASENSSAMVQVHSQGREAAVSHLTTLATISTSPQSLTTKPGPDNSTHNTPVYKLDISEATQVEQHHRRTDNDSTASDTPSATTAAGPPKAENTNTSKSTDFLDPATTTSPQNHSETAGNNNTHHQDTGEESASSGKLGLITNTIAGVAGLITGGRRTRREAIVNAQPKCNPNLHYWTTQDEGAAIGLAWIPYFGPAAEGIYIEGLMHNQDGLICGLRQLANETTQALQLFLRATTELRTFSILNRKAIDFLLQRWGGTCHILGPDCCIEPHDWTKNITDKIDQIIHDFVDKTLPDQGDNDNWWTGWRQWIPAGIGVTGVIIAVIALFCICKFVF
Test: cell-based or functional assay
// reported IC50, half-maximal neutralization of viral infectivity (rVSV-GP) per item
Provide the reading as a plain figure in nM.

Consider the reported IC50, half-maximal neutralization of viral infectivity (rVSV-GP) for these binders:
- binder: "PE-87 Y107A (antibody, V domains shown) VH: QVQLVQSGVTLVQPGGSLRVSCAASGFTFSSYAMSWVRQAPGKGLEWVSAISGLGGSTYYADSVKGRFTISRDNSKNTLYLQMNSLRAEDTAVYYCAKDHRVWAAGAHFDYWGQGALVTVSS VL: DIVLTQSPSTLSASVGDRVTITCRASQSISSWLAWYQQKPGEAPKLLISDASSLESGVPSRFSGSGSGTEFTLTISSLQPDDFATYYCQQYYSSPTFGGGTKVEIK"
  units-label: "nM"
  observed-value: 3
- binder: "PE-87 R101A (antibody, V domains shown) VH: QVQLVQSGVTLVQPGGSLRVSCAASGFTFSSYAMSWVRQAPGKGLEWVSAISGLGGSTYYADSVKGRFTISRDNSKNTLYLQMNSLRAEDTAVYYCAKDHAVWAAGYHFDYWGQGALVTVSS VL: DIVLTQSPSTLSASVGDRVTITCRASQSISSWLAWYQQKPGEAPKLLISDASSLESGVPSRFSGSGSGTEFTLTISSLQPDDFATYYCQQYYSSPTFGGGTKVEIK"
  units-label: "nM"
  observed-value: 3.2

IC50, half-maximal neutralization of viral infectivity (rVSV-GP) recorded for this binder, PE-87 G106A (antibody, V domains shown) VH: QVQLVQSGVTLVQPGGSLRVSCAASGFTFSSYAMSWVRQAPGKGLEWVSAISGLGGSTYYADSVKGRFTISRDNSKNTLYLQMNSLRAEDTAVYYCAKDHRVWAAAYHFDYWGQGALVTVSS VL: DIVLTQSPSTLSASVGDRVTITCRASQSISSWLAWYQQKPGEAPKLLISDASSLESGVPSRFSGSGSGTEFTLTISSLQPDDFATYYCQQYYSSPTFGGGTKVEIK , is 0.8
